test_system: T1, human serum albumin (human, UniProt P02768 25-609)
T1 construct: mature; Bought purified serum albumin; also called HSA; Human albumin
test_name: SPR, Fab captured; albumin taken as HSA;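 also: captured antibody exposed to albumin for 3 min association, then dissociation followed, with blank flow-cell reference and buffer-blank injections subtracted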
Kd by entry:
Kindly report the value followed by its unit.

Look over these answered cases.
binder	Kd
CA645 gL31gH5 Fab (Fab, V domains shown, Fab: human gamma1 CH1, human kappa (Km3); Kabat numbering) VH: EVQLLESGGGLVQPGGSLRLSCAVSGIDLSNYAINWVRQAPGKGLEWIGIIWASGTTFYATWAKGRFTISRDNSKNTVYLQMNSLRAEDTAVYYCARTVPGYSTAPYFDLWGQGTLVTVSS VL: DIQMTQSPSSVSASVGDRVTITCQSSPSVWSNFLSWYQQKPGKAPKLLIYEASKLTSGVPSRFSGSGTGTDFTLTISSLQPEDFATYYCGGGYSSISDTTFGGGTKVEIK	2.49 nM
CA645 gL4gH46 Fab (Fab, V domains shown, Fab: human gamma1 CH1, human kappa (Km3); Kabat numbering) VH: EVQLLESGGGLVQPGGSLRLSCAVSGIDLSNYAINWVRQAPGKGLEWIGIIWASGTTFYATWAKGRFTISRDNSKNTVYLQMNSLRAEDTAVYYCARTYPGYSTAPYFDLWGQGTLVTVSS VL: DIQMTQSPSSVSASVGDRVTITCQSSPSVWSNFLSWYQQKPGKAPKLLIYEASKLTSGVPSRFSGSGSGTDFTLTISSLQPEDFATYYCGGGYSSISDTTFGGGTKVEIK	3.26 nM
CA645 gL29gH5 Fab (Fab, V domains shown, Fab: human gamma1 CH1, human kappa (Km3); Kabat numbering) VH: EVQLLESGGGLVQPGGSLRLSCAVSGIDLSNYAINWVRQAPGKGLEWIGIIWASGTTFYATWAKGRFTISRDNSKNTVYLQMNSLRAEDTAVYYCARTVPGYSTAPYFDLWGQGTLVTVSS VL: DIQMTQSPSSVSASVGDRVTITCQSSPSVWSNFLSWYQQKPGKAPKLLIYEASKLTSGVPSRFSGSGVGTDFTLTISSLQPEDFATYYCGGGYSSISDTTFGGGTKVEIK	1.78 nM
CA645 gL28gH5 Fab (Fab, V domains shown, Fab: human gamma1 CH1, human kappa (Km3); Kabat numbering) VH: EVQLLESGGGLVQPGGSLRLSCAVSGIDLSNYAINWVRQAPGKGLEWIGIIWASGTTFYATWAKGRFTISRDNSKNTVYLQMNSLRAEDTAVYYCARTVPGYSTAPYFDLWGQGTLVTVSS VL: DIQMTQSPSSVSASVGDRVTITCQSSPSVWSNFLSWYQQKPGKAPKLLIYEASKLTSGVPSRFSGSGLGTDFTLTISSLQPEDFATYYCGGGYSSISDTTFGGGTKVEIK	1.85 nM

-- ask Entry under review: CA645 gL30gH5 Fab (Fab, V domains shown, Fab: human gamma1 CH1, human kappa (Km3); Kabat numbering) VH: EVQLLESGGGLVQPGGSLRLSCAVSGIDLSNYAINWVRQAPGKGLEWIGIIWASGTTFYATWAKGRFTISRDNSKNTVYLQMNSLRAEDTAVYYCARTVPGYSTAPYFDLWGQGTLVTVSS VL: DIQMTQSPSSVSASVGDRVTITCQSSPSVWSNFLSWYQQKPGKAPKLLIYEASKLTSGVPSRFSGSGIGTDFTLTISSLQPEDFATYYCGGGYSSISDTTFGGGTKVEIK . Reported Kd?
-- reply 1.61 nM

Hey, just so you know, these numbers are from patent US20190144529A1.
